system-name: human D2 dopamine receptor (Homo sapiens)
Construct: expressed in transfected cells; host or cells: HEK-293 EBNA cells (transient transfection), membrane preparation
test-summary: Radioligand binding, human D2 receptor ([3H]-spiperone)
experimental-setup: third value of the cell; membranes of transfected HEK-293 EBNA cells, 0.7 nM [3H]-spiperone; read-out: Ki(nM) D3/5HT2A/D2: D2
Description: The cells were harvested 48 h post-transfection, washed three times with cold PBS and stored at −80° C. prior to use. […] The protein content of this homogenate was determined with the Bio-Rad (Bradford) Protein Assay (Biorad Laboratories GmbH, München, Germany) according to the instructions of the manufacturer using gamma globulin as the standard. […] The binding affinity (Ki) of the compounds was determined using radioligand binding. […]
measured-attribute: Ki (nM)
Form entry: value (nM) — number only.

CN(C)C(=O)N[C@H]1CC[C@H](CCN2CCC(C(=O)c3ccc(F)cc3)CC2)CC1 :: 176
O=C(N[C@H]1CC[C@H](CCN2CCC(O)(C(=O)c3ccccc3)CC2)CC1)c1ccnc2ccccc12 :: 1980
O=C(c1ccc(F)cc1)C1CCN(CC[C@H]2CC[C@H](NC(=O)C3(O)CC3)CC2)CC1 :: 888

Proceed to the following item.
INPUT: If you can, please state the reported Ki value of CC(C)(CO)C(=O)N[C@H]1CC[C@H](CCN2CCC(C(=O)c3ccc(F)cc3)CC2)CC1 .
OUTPUT: 1010

* * *

system-name: human D3 dopamine receptor (Homo sapiens, UniProt P35462)
Construct: expressed in transfected cells; host or cells: HEK-293 EBNA cells (transient transfection), membrane preparation
Sequence (P35462 whole entry): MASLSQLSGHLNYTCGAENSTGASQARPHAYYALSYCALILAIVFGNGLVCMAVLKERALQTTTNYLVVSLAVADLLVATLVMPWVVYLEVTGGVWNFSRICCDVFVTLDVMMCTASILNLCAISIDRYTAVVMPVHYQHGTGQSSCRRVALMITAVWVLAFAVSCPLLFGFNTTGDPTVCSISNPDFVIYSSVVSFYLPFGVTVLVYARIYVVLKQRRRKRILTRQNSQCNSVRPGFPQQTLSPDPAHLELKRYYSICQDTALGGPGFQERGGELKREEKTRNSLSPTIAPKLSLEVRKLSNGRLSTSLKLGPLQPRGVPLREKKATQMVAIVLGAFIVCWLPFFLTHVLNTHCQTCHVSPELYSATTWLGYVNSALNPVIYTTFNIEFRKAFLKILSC
test-summary: Radioligand binding, human D3 receptor ([3H]-spiperone)
experimental-setup: first value of the cell; membranes of transfected HEK-293 EBNA cells, 0.5 nM [3H]-spiperone; read-out: Ki(nM) D3/5HT2A/D2: D3
measured-attribute: Ki (nM)
Form entry: value (nM) — number only.

COCCC(=O)N[C@H]1CC[C@H](CCN2CCC(C(=O)c3ccc(F)cc3F)CC2)CC1 :: 19
O=C(N[C@H]1CC[C@H](CCN2CCC(C(=O)c3ccc(F)cc3F)CC2)CC1)C1CCOC1 (relative stereo) :: 35
O=C(CC(F)(F)F)N[C@H]1CC[C@H](CCN2CCC(C(=O)c3ccc(F)cc3)CC2)CC1 :: 17

Proceed to the following item.
INPUT: If you can, please state the reported Ki value of CN(C)C(=O)N[C@H]1CC[C@H](CCN2CCC(C(=O)c3ccc(F)cc3)CC2)CC1 .
OUTPUT: 86

* * *

system-name: human D2 dopamine receptor (Homo sapiens, UniProt P14416)
Construct: expressed in transfected cells; host or cells: HEK-293 EBNA cells (transient transfection), membrane preparation
Sequence (P14416 whole entry): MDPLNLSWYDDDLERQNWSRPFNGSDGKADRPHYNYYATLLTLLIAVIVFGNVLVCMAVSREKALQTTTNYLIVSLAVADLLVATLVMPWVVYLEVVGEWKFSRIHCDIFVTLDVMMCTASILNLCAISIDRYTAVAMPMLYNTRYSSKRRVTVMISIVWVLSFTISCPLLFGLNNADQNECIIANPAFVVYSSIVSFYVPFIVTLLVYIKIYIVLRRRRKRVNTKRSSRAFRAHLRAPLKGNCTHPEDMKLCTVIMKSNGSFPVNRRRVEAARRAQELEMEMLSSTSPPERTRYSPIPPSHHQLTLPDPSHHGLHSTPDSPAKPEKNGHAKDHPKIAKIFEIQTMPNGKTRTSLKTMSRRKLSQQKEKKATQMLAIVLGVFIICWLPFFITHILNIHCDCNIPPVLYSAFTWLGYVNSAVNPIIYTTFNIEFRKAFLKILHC
test-summary: Radioligand binding, human D2 receptor ([3H]-spiperone)
experimental-setup: third value of the cell; membranes of transfected HEK-293 EBNA cells, 0.7 nM [3H]-spiperone; read-out: Ki(nM) D3/5HT2A/D2: D2
# maps each entry to its log10 of Ki
Please interpret these as log10 of Ki where Ki is in nM.

COCCC(=O)N[C@H]1CC[C@H](CCN2CCC(C(=O)c3ccc(F)cc3F)CC2)CC1 :: 3.55
O=C(N[C@H]1CC[C@H](CCN2CCC(C(=O)c3ccc(F)cc3)CC2)CC1)c1ccc(S(=O)(=O)c2ccc(Cl)cc2)cc1 :: 1.86
CC(C)(C(=O)N[C@H]1CC[C@H](CCN2CCC(C(=O)c3ccc(F)cc3)CC2)CC1)c1ccc(Cl)cc1 :: 1.98
O=C(N[C@H]1CC[C@H](CCN2CCC(F)(C(=O)c3ccccc3)CC2)CC1)c1ccnc2ccccc12 :: 2.28
Cc1ccc(NC(=O)N[C@H]2CC[C@H](CCN3CCC(C(=O)c4ccc(F)cc4)CC3)CC2)cc1 :: 2.83

Proceed to the following item.
INPUT: If you can, please state the reported log10 of Ki value of O=C(N[C@H]1CC[C@H](CCN2CCC(C(=O)c3ccc(F)cc3)CC2)CC1)c1ccc(Cl)cc1Cl .
OUTPUT: 2.17

* * *

system-name: human D3 dopamine receptor (Homo sapiens)
Construct: expressed in transfected cells; host or cells: HEK-293 EBNA cells (transient transfection), membrane preparation
test-summary: Radioligand binding, human D3 receptor ([3H]-spiperone)
experimental-setup: first value of the cell; membranes of transfected HEK-293 EBNA cells, 0.5 nM [3H]-spiperone; read-out: Ki(nM) D3/5HT2A/D2: D3
# maps each entry to its Ki
Form entry: value (nM) — number only.

Below, 2 compounds whose answers are already recorded.
O=C(Nc1ccc(Cl)cc1)N[C@H]1CC[C@H](CCN2CCC(C(=O)c3ccc(F)cc3F)CC2)CC1 :: 4
O=C(N[C@H]1CC[C@H](CCN2CCC(C(=O)c3ccc(F)cc3)CC2)CC1)c1ccc(N2CCOCC2)nn1 :: 26

Proceed to the following item.
INPUT: If you can, please state the reported Ki value of O=C(N[C@H]1CC[C@H](CCN2CCC(C(=O)c3ccc(F)cc3)CC2)CC1)c1ccc(S(=O)(=O)c2ccc(Cl)cc2)cc1 .
OUTPUT: 72

* * *

# maps each entry to its Ki
system-name: human D3 dopamine receptor (Homo sapiens, UniProt P35462)
Construct: expressed in transfected cells; host or cells: HEK-293 EBNA cells (transient transfection), membrane preparation
test-summary: Radioligand binding, human D3 receptor ([3H]-spiperone)
experimental-setup: first value of the cell; membranes of transfected HEK-293 EBNA cells, 0.5 nM [3H]-spiperone; read-out: Ki(nM) D3/5HT2A/D2: D3
Form entry: value (nM) — number only.

Below, 5 molecules whose answers are already recorded.
COC(=O)N[C@H]1CC[C@H](CCN2CCC(C(=O)c3ccc(F)cc3)CC2)CC1 :: 19
O=C(CO)NC1CCC(CCN2CCC(C(=O)c3ccc(F)cc3F)CC2)CC1 (stereo not shown) :: 44
Cc1cc(CC(=O)N[C@H]2CC[C@H](CCN3CCC(C(=O)c4ccc(F)cc4)CC3)CC2)on1 :: 26
O=C(N[C@H]1CC[C@H](CCN2CCC(F)(C(=O)c3ccccc3)CC2)CC1)c1ccnc2ccccc12 :: 23
CC(=O)OCC(=O)N[C@H]1CC[C@H](CCN2CCC(C(=O)c3ccc(F)cc3)CC2)CC1 :: 30

INPUT: # get_value(readout= Ki, system= human D3 dopamine receptor (Homo sapiens, UniProt P35462)) for O=C(C#Cc1ccccc1)N[C@H]1CC[C@H](CCN2CCC(C(=O)c3ccc(F)cc3)CC2)CC1
OUTPUT: 9

INPUT: How about Cc1nc(-c2cccc(C(=O)N[C@H]3CC[C@H](CCN4CCC(O)(C(=O)c5ccc(F)cc5)CC4)CC3)c2)no1 ?
OUTPUT: 53

* * *

system-name: human D2 dopamine receptor (Homo sapiens)
Construct: expressed in transfected cells; host or cells: HEK-293 EBNA cells (transient transfection), membrane preparation
test-summary: Radioligand binding, human D2 receptor ([3H]-spiperone)
experimental-setup: third value of the cell; membranes of transfected HEK-293 EBNA cells, 0.7 nM [3H]-spiperone; read-out: Ki(nM) D3/5HT2A/D2: D2
Entries whose Ki is below 1000 nM take Condition met; entries at or above 1000 nM take Condition not met.

Take a look at these entries with their results.
COCCC(=O)N[C@H]1CC[C@H](CCN2CCC(F)(C(=O)c3ccc(F)cc3)CC2)CC1 :: Condition met
CC(=O)OCC(=O)N[C@H]1CC[C@H](CCN2CCC(C(=O)c3ccc(F)cc3)CC2)CC1 :: Condition not met
Cc1nc(-c2cccc(C(=O)N[C@H]3CC[C@H](CCN4CCC(O)(C(=O)c5ccc(F)cc5)CC4)CC3)c2)no1 :: Condition not met

INPUT: Ki under 1000 nM? Item: O=C(N[C@H]1CC[C@H](CCN2CCC(C(=O)c3ccc(F)cc3F)CC2)CC1)C1CCOC1 (relative stereo)
OUTPUT: Condition not met

INPUT: How about O=C(CO)NC1CCC(CCN2CCC(C(=O)c3ccc(F)cc3F)CC2)CC1 (centres unmarked) ?
OUTPUT: Condition not met

INPUT: How about CN(C(=O)N[C@H]1CC[C@H](CCN2CCC(C(=O)c3ccc(F)cc3)CC2)CC1)c1ccc(Cl)cc1 ?
OUTPUT: Condition met

INPUT: How about CC(=O)N[C@H]1CC[C@H](CCN2CCC(C(=O)c3ccccc3Cl)CC2)CC1 ?
OUTPUT: Condition not met

INPUT: How about O=C(N[C@H]1CC[C@H](CCN2CCC(C(=O)c3ccc(F)cc3)CC2)CC1)c1ccc(-n2cccc2)cc1 ?
OUTPUT: Condition met

* * *

system-name: human 5-HT2A serotonin receptor (Homo sapiens, UniProt P28223)
Construct: expressed in transfected cells; host or cells: HEK-293 EBNA cells (transient transfection), membrane preparation
Sequence (P28223 whole entry): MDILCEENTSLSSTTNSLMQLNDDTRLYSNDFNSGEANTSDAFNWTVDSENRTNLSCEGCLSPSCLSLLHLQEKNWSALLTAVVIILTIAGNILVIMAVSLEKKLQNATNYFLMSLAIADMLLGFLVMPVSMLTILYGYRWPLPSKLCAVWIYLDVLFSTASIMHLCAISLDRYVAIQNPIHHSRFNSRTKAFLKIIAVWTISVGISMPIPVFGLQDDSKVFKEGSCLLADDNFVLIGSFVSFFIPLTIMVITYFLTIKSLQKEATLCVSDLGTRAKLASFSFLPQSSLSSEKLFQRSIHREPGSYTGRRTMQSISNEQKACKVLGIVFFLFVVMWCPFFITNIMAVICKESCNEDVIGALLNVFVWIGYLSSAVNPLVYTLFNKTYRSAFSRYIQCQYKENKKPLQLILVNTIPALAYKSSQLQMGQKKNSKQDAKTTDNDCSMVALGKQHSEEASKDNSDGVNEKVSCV
test-summary: Radioligand binding, human 5-HT2A receptor ([3H]-ketanserin)
experimental-setup: second value of the cell; membranes of transfected HEK-293 EBNA cells, 1.1 nM [3H]-ketanserin; read-out: Ki(nM) D3/5HT2A/D2: 5HT2A
measured-attribute: Ki (nM)
Form entry: value (nM) — number only.

Below, 3 compounds whose answers are already recorded.
COC(=O)N[C@H]1CC[C@H](CCN2CCC(C(=O)c3ccc(F)cc3)CC2)CC1 [Example 30A64] :: 13
O=C(CCOc1ccccc1)N[C@H]1CC[C@H](CCN2CCC(C(=O)c3ccc(F)cc3)CC2)CC1 [Example 30A27] :: 8
Cc1cc(CC(=O)N[C@H]2CC[C@H](CCN3CCC(C(=O)c4ccc(F)cc4)CC3)CC2)on1 [Example 30A36] :: 5

Proceed to the following item.
INPUT: If you can, please state the reported Ki value of O=C(N[C@H]1CC[C@H](CCN2CCC(C(=O)c3ccc(F)cc3)CC2)CC1)c1ccc(-n2cccc2)cc1 [Example 9] .
OUTPUT: 2
